target: CCR2 receptor (Homo sapiens, UniProt P41597); assay: Inhibition of MCP-1 induced Ca-flux in human THP-1 cells; conditions: -log IC50 (molar), inhibition of specific MCP-1 induced Ca2+ flux, 10^-7 M hMCP-1, 20 min pre-incubation, FLIPR
Sequence (P41597 1-360 isoform P41597-2): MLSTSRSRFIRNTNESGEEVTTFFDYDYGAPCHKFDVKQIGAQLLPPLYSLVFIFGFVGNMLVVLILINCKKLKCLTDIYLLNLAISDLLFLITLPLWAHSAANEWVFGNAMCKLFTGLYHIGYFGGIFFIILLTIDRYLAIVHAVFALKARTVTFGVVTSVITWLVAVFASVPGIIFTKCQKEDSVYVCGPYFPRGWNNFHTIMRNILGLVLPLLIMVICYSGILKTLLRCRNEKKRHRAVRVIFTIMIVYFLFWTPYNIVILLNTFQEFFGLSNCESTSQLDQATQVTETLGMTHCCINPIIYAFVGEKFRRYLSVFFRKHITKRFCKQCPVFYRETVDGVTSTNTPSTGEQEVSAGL
Measure Name: IC50 (nM)
Entry rule: numbers only, all in nM.

Solved cases (5 shown):
>  <Compound>
CCC(c1ccc(Cl)c(Cl)c1)n1c(-c2ncn[nH]2)c[nH]c1=S (centres unmarked) [Compound 12]

>  <IC50 / nM>
398

$$$$
>  <Compound>
CCC(c1ccc(Cl)c(Cl)c1)n1c(-c2cc[nH]n2)c[nH]c1=S (centres unmarked) [Compound 11]

>  <IC50 / nM>
724

$$$$
>  <Compound>
CCC(c1ccc(Cl)c(Cl)c1)n1c(-c2ccnc(NCCO)n2)c[nH]c1=S (centres unmarked) [Compound 21]

>  <IC50 / nM>
34.7

$$$$
>  <Compound>
CCC(c1ccc(C(F)(F)F)c(F)c1)n1c(-c2nc(C)no2)c[nH]c1=S (centres unmarked) [Compound 26]

>  <IC50 / nM>
219

$$$$
>  <Compound>
CCC(c1ccc(Cl)c(Cl)c1)n1c(-c2ccnc(NC)n2)c[nH]c1=S (centres unmarked) [Compound 20]

>  <IC50 / nM>
41.7

$$$$

Enquiry: Need IC50, item CCC(c1ccc(Cl)c(Cl)c1)n1c(-c2ccnc(C)n2)c[nH]c1=S (centres unmarked) [Compound 19]
Return: 832

Enquiry: Entry under review: CCC(c1ccc(Cl)c(Cl)c1)n1c(-c2nnc(C)o2)c[nH]c1=S (centres unmarked) [Compound 14] . Reported IC50?
Return: 417

Enquiry: What value of IC50 has been recorded for this entry: CCC(c1ccc(Cl)c(Cl)c1)n1c(-c2nnc(N)o2)cnc1S (centres unmarked) [Compound 9]
Return: 33.1

Enquiry: Reported IC50, compound CCC(c1ccc(Cl)c(Cl)c1)n1c(-c2nc(C)no2)cnc1S (centres unmarked) [Compound 5] : ____
Return: 200

Enquiry: Data request, read-out IC50, for CCC(c1ccc(Cl)c(Cl)c1)n1c(-c2ccnc(N3CCNCC3)n2)c[nH]c1=S (centres unmarked) [Compound 24]
Return: 631

Enquiry: Entry CCC(c1ccc(Cl)c(Cl)c1)n1c(-c2ccnc(N)n2)c[nH]c1=S (centres unmarked) [Compound 1] has what IC50?
Return: 35.5

The reported measurements were obtained from patent US20070244138A1.
